Cited source for all entries: patent US20150105252A1

Parameter Chamomile plant response rating: see the listing below.
# Test system: chamomile
# protocolDetails: Test D postemergence
# Assay type: in vivo, Matricaria inodora
# statedConditions: postemergence, 62 g ai/ha; scale 0 to 100

> print(dat)
                                   molecule                 measuredproperty  reported
1  CCc1cc(C(=O)NCC(F)(F)F)nn1Cc1ccnc(SC(F)(F)F)c1 [Compound 214]  Chamomile plant response rating        40
2  CCCc1cc(C(=O)NC2CC2)nn1Cc1cc(C(F)(F)F)nn1C [Compound 202]  Chamomile plant response rating        55
3  Cc1cc(C(=O)NCC(F)(F)F)nn1Cc1ccnc(C(F)(F)F)c1 [Compound 74]  Chamomile plant response rating        20

API: the following record is the query input.
Prompt line: Lab note: need Chamomile plant response rating with chamomile for entry O=C(NC1CC1)c1cc(CCF)n(Cc2ccnc(C(F)(F)F)c2)n1 [Compound 176] , please look it up.
Response line: 15
